Reported chromatographic logP values for a set of compounds
experiment: physchem; details: LogPA
MEASURED PROPERTY: chromatographic logP

{"COMPOUND": "CC(C)Cn1cc(-c2ccnc(NC3CC3)n2)c(-c2ccc(F)cc2)n1 [Compound 281]", "RESULT": 2.41}
{"COMPOUND": "CC(C)C(=O)Nc1cc(-c2cn(Cc3ccccc3F)nc2-c2ccc(F)cc2)ccn1 [Compound 256]", "RESULT": 3.03}
{"COMPOUND": "CCn1cc(-c2ccnc(NC(=O)CC3CC3)c2)c(-c2ccc(F)cc2)n1 [Compound 291]", "RESULT": 2.29}
{"COMPOUND": "CCC(=O)Nc1cc(-c2cn(C)nc2-c2ccc(F)cc2)ccn1 [Compound 296]", "RESULT": 1.56}
{"COMPOUND": "C#CCNc1nccc(-c2c[nH]nc2-c2ccc(F)cc2)n1 [Compound 173]", "RESULT": 1.44}
{"COMPOUND": "CC(C)n1cc(-c2ccnc(NC(=O)c3ccsc3)c2)c(-c2ccc(F)cc2)n1 [Compound 207]", "RESULT": 2.96}
{"COMPOUND": "O=C(Nc1cc(-c2cn(CC(F)F)nc2-c2ccc(F)cc2)ccn1)c1cccs1 [Compound 236]", "RESULT": 2.82}
{"COMPOUND": "Cn1cc(-c2ccnc(NC(=O)c3ccccc3)c2)c(-c2ccc(F)cc2)n1 [Compound 346]", "RESULT": 2.42}
{"COMPOUND": "C#CCn1nc(-c2ccc(F)cc2)c(-c2ccncc2)c1C [Compound 171]", "RESULT": 2.51}
{"COMPOUND": "CCn1cc(-c2ccnc(NC(=O)C(N)=O)c2)c(-c2ccc(F)cc2)n1 [Compound 351]", "RESULT": 1.99}
{"COMPOUND": "CCC(=O)Nc1cc(-c2cn(CC3CC3)nc2-c2ccc(F)cc2)ccn1 [Compound 214]", "RESULT": 2.2}
{"COMPOUND": "CC(C)S(=O)(=O)Nc1cc(-c2cn(CC(F)F)nc2-c2ccc(F)cc2)ccn1 [Compound 234]", "RESULT": 3.96}
{"COMPOUND": "CCn1cc(-c2ccnc(NC(C)C)n2)c(-c2ccc(F)cc2)n1 [Compound 370]", "RESULT": 1.91}
{"COMPOUND": "COCC(=O)Nc1cc(-c2cn(C3CC3)nc2-c2ccc(F)cc2)ccn1 [Compound 321]", "RESULT": 2.37}
{"COMPOUND": "CC(C)Cn1cc(-c2ccncc2-c2cccc(F)c2)c(-c2ccc(F)cc2)n1 [Compound 229]", "RESULT": 3.13}
{"COMPOUND": "O=C(Nc1cc(-c2cn(CC(F)F)nc2-c2ccc(F)cc2)ccn1)c1ccccc1 [Compound 237]", "RESULT": 2.9}
{"COMPOUND": "CC(C)n1cc(-c2ccnc(NC(=O)c3cccs3)c2)c(-c2ccc(F)cc2)n1 [Compound 206]", "RESULT": 3.14}
{"COMPOUND": "O=C(CC1CC1)Nc1cc(-c2cn(C3CC3)nc2-c2ccc(F)cc2)ccn1 [Compound 323]", "RESULT": 2.48}

* * *

assay: physchem; conditions: pH 2.7, logP (pH 2.7)

{"MOLECULE": "CCn1cc(-c2ccnc(N)c2)c(-c2ccc(F)cc2)n1 [[III-3]]", "chromatographic logP": 0.97}
{"MOLECULE": "CSc1nccc(-c2cn(C(C)C)nc2-c2ccc(F)cc2)n1 [[XL-1]]", "chromatographic logP": 3.62}
{"MOLECULE": "CSCCn1cc(Br)c(-c2ccc(F)cc2)n1 [[VI-15]]", "chromatographic logP": 3.63}
{"MOLECULE": "COCC(=O)Nc1cc(B2OC(C)(C)C(C)(C)O2)ccn1 [[XV-a-1]]", "chromatographic logP": -0.18}
{"MOLECULE": "CC(C)Cn1cc(Br)c(-c2ccc(F)c(C#N)c2)n1 [[VI-11]]", "chromatographic logP": 4.15}
{"MOLECULE": "CN(C)C=C(C(=O)c1c(F)cccc1F)c1ccncc1 [[XXVI-1]]", "chromatographic logP": 0.6}
{"MOLECULE": "CC(C)Nc1nccc(C(=CN(C)C)C(=O)c2ccc(F)cc2)n1 [[XLV-1]]", "chromatographic logP": 1.45}
{"MOLECULE": "N#Cc1cccc(Cn2ncc(-c3ccncc3)c2-c2ccc(F)cc2)c1 [[I-4]]", "chromatographic logP": 1.38}
{"MOLECULE": "COC(=O)C(C(C)C)n1cc(Br)c(-c2ccc(F)cc2)n1 (stereo not drawn) [[VI-16]]", "chromatographic logP": 4.27}
{"MOLECULE": "Fc1ccc(-c2nn(CC3CC3)cc2Br)cc1 [[VI-18]]", "chromatographic logP": 3.9}
{"MOLECULE": "CC(C)Nc1nccc(-c2c[nH]nc2-c2ccc(F)cc2)n1 [[XLVI-1]]", "chromatographic logP": 1.37}
{"MOLECULE": "CC(C)n1cc(-c2ccnc(S(C)(=O)=O)n2)c(-c2ccc(F)cc2)n1 [[XLI-1]]", "chromatographic logP": 2.9}
{"MOLECULE": "Cn1nc(-c2ccc(F)cc2)c(Br)c1OC(F)F [[VI-b-1]]", "chromatographic logP": 3.52}
{"MOLECULE": "CC(C)On1cc(B2OC(C)(C)C(C)(C)O2)c(-c2ccc(F)cc2)n1 [[V-5]]", "chromatographic logP": 4.81}
{"MOLECULE": "CC1(C)OB(c2cn(C3CC3)nc2-c2ccc(F)cc2)OC1(C)C [[V-7]]", "chromatographic logP": 3.47}
{"MOLECULE": "Cn1cc(B2OC(C)(C)C(C)(C)O2)c(-c2ccc(F)cc2)n1 [[V-9]]", "chromatographic logP": 3.47}
{"MOLECULE": "CC(C)n1ncc(-c2ccncc2)c1-c1c(F)cccc1F [[I-d-2]]", "chromatographic logP": 1.54}
{"MOLECULE": "N#Cc1cccc(Cn2cc(Br)c(-c3ccc(F)cc3)n2)c1 [[VI-12]]", "chromatographic logP": 3.93}
{"MOLECULE": "CC(C)Cn1cc(B2OC(C)(C)C(C)(C)O2)c(-c2ccc(F)cc2)n1 [[V-3]]", "chromatographic logP": 4.76}
{"MOLECULE": "Fc1ccc(-c2nn(CC3OCCO3)cc2Br)cc1 [[VI-17]]", "chromatographic logP": 3.01}
{"MOLECULE": "CC(C)Cn1cc(-c2ccnc(NC(=O)C(C)C)c2)c(-c2ccc(F)cc2)n1 [[I-c-2]]", "chromatographic logP": 2.89}
{"MOLECULE": "CCn1ncc(Br)c1-c1ccc(F)cc1 [[VI-3]]", "chromatographic logP": 3.15}
{"MOLECULE": "CC(C1CC1)n1cc(Br)c(-c2ccc(F)cc2)n1 (stereo not drawn) [[VI-22]]", "chromatographic logP": 4.43}
{"MOLECULE": "CCCn1cc(Br)c(-c2ccc(F)cc2)n1 [[VI-14]]", "chromatographic logP": 3.89}
{"MOLECULE": "Fc1ccc(-c2nn(C3CC3)cc2Br)cc1 [[VI-26]]", "chromatographic logP": 3.59}
{"MOLECULE": "Fc1ccc(-c2nn(CC3CC3(Cl)Cl)cc2Br)cc1 (stereo not drawn) [[VI-10]]", "chromatographic logP": 4.43}
{"MOLECULE": "CC(C)n1cc(-c2ccnc3ccccc23)c(-c2ccc(F)cc2)n1 [[I-1]]", "chromatographic logP": 2.23}
{"MOLECULE": "N#Cc1cccc(Cn2cc(-c3ccncc3)c(-c3ccc(F)cc3)n2)c1 [[I-3]]", "chromatographic logP": 1.51}
{"MOLECULE": "O=C(Cc1ccncc1)c1c(F)cccc1F [[XXV-1]]", "chromatographic logP": 0.62}
{"MOLECULE": "CC1(C)OB(c2cn(OC3CCCC3)nc2-c2ccc(F)cc2)OC1(C)C [[V-6]]", "chromatographic logP": 5.51}
{"MOLECULE": "CCOCCn1cc(Br)c(-c2ccc(F)cc2)n1 [[VI-20]]", "chromatographic logP": 3.51}
{"MOLECULE": "CC(C)C(=O)Nc1cc(B2OC(C)(C)C(C)(C)O2)ccn1 [[XV-a-4]]", "chromatographic logP": 0.04}
{"MOLECULE": "CC(C)Cn1cc(Br)c(-c2ccc(F)cc2)n1 [[VI-4]]", "chromatographic logP": 4.34}
{"MOLECULE": "Fc1cccc(F)c1-c1n[nH]cc1-c1ccncc1 [[XXVII-1]]", "chromatographic logP": 1.54}
{"MOLECULE": "CC(C)On1cc(Br)c(-c2ccc(F)cc2)n1 [[VI-25]]", "chromatographic logP": 4.11}
{"MOLECULE": "CC(C)n1cc(-c2ccnc(NC(=O)C3CC3)c2)c(-c2ccc(F)cc2)n1 [[I-c-1]]", "chromatographic logP": 2.07}
{"MOLECULE": "CC1(C)OB(c2cn(CC(F)F)nc2-c2ccc(F)cc2)OC1(C)C [[V-4]]", "chromatographic logP": 3.84}
{"MOLECULE": "Fc1ccc(-c2[nH]nc(C3CC3)c2-c2ccncc2)cc1 [[IX-b-2]]", "chromatographic logP": 0.92}
{"MOLECULE": "CC(C)Nc1nccc(CC(=O)c2ccc(F)cc2)n1 [[XLIV-1]]", "chromatographic logP": 2.05}
{"MOLECULE": "CC(C)C(=O)Nc1cc(Br)ccn1 [[IV-c-1]]", "chromatographic logP": 2.09}
{"MOLECULE": "CC(C)n1nc(-c2ccc(F)cc2)c(Br)c1C(F)(F)F [[VI-24]]", "chromatographic logP": 5.51}
{"MOLECULE": "O=C(Cc1ccnc(Cl)n1)c1ccc(F)cc1 [[XLIII-1]]", "chromatographic logP": 2.27}
